Values were extracted from paper PMC9046974.

# assayTarget: matrix metalloproteinase-2 (Homo sapiens)
# Sequence (P08253 110-660): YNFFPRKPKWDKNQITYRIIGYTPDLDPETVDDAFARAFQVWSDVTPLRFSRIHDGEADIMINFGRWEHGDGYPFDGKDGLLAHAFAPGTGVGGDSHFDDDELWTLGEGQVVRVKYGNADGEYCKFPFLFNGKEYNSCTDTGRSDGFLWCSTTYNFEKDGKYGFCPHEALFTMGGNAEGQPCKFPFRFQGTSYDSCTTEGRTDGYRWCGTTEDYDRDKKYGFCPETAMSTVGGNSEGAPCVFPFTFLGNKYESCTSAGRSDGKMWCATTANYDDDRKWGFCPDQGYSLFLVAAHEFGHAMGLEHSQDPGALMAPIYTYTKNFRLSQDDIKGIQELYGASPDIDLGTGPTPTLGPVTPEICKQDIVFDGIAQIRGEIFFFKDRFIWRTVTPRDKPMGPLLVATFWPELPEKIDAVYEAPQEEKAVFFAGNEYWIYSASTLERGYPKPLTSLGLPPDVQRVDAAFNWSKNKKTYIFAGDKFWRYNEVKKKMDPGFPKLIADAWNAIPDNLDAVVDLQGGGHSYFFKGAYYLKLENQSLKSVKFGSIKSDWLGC
# assayText: Matrix metalloproteinase-2 inhibitory assay
# conditionsUsed: MMP-2 inhibition, 30 min at 37°C, absorbance 450 nm
# Experimental: The inhibitory effects of binding ligands were evaluated as below. […] Test components were dissolved in the buffer to yield a gradient of concentrations between 1 and 200 μM. A total of 50 μl of test components and 100 μl of the enzyme solution were added to a 96-well plate and incubated for 30 min at 37°C. Afterward, the solution in the 96-well plate was discarded. […] The plate was monitored at the absorbance of 450 nm by using an automatic microplate reader.
pIC50: −log10 of the molar value.
attributeMeasured: pIC50

{"compound": "COC(=O)[C@@]1(C)CC[C@]2(C(=O)O[C@@H]3O[C@H](CO)[C@@H](O)[C@H](O)[C@H]3O)CC[C@]3(C)C(=CC[C@@H]4[C@@]5(C)CC[C@H](O)[C@@](C)(CO)[C@@H]5CC[C@]43C)[C@@H]2C1 [Zebirioside O]", "observedResult": 4.63}
{"compound": "C[C@@H]1CC[C@]2(C(=O)O[C@@H]3O[C@H](CO)[C@@H](O)[C@H](O)[C@H]3O)CC[C@]3(C)C(=CC[C@@H]4[C@@]5(C)C[C@@H](O)[C@@H](O)C(C)(C)[C@@H]5CC[C@]43C)[C@@H]2[C@]1(C)O [Kajiichigoside F1]", "observedResult": 4.66}

(A) O=C(O[C@@H]1O[C@@H]2COC(=O)c3cc(O)c(O)c(O)c3-c3c(cc(O)c(O)c3O)C(=O)O[C@H]([C@H]1O)[C@@H]2O)c1cc(O)c(O)c(O)c1 [Corilagin]
(B) CC1(C)CC[C@]2(C(=O)O)CC[C@]3(C)C(=CC[C@@H]4[C@@]5(C)C[C@H](O)[C@H](O)[C@@](C)(C(=O)O)[C@@H]5CC[C@]43C)[C@@H]2C1 [Medicogenic acid, Medicagenic acid]
**Query** For A and B , which recorded pIC50 is lower? Lab log: write the label of the selected item as the result.
**Result** B
(B: 4.19, A: 4.54)
